system: human ether-à-go-go-related gene (hERG) potassium channel (human, UniProt Q12809)
Sequence (Q12809 whole entry, looked up): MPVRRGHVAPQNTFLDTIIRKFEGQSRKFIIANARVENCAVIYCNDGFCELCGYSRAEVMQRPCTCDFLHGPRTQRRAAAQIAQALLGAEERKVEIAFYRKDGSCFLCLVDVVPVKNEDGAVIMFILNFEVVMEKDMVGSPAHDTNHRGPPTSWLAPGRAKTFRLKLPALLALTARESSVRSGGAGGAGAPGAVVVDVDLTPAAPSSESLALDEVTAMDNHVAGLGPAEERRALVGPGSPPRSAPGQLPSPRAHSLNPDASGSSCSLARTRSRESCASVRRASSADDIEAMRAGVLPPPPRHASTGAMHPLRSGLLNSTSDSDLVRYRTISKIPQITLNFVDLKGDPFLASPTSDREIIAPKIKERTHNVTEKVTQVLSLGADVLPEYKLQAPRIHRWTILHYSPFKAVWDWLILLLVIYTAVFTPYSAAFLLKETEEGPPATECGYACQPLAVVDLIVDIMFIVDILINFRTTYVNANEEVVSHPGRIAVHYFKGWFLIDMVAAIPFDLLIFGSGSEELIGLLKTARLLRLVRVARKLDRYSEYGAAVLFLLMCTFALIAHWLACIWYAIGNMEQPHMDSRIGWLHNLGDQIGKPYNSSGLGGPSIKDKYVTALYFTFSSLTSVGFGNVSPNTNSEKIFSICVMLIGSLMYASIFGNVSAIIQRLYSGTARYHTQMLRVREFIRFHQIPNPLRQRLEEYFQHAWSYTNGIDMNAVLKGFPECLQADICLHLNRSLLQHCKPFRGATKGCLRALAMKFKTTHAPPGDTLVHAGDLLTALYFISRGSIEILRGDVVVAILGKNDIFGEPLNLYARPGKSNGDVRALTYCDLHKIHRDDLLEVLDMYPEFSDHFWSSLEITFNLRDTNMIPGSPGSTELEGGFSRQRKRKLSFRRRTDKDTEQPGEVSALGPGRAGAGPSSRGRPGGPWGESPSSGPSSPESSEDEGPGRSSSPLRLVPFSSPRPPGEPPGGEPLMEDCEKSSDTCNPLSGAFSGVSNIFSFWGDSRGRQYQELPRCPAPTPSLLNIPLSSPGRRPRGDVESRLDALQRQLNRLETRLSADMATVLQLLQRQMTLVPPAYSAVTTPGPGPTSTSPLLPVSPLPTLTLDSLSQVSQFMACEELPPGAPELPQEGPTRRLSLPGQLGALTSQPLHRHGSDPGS
measurementProtocol: primary screen, population patch clamp on CHO cells stably expressing hERG; higher = less effect of the substance
The campaign covered roughly 310,000 compounds. About 14,000 (4.5%) showed an effect of 50% or more. Effects have a minus sign here. This excerpt belongs to a sample that is enriched for strong results.
// reported hERG current change (%, negative = inhibition) at 10uM for each item listed
Report only the number, with the unit % understood.

| compound | observedResult |
| --- | --- |
| CC(C)C(C(=O)NC(C)(C)C)N(CCN1CCOCC1)C(=O)CNS(=O)(=O)c1ccccc1 (stereo not shown) | 0.875 |
| O=S(=O)(Nc1cccnc1Cl)c1ccc2c(c1)OCCO2 | 15.4 |
| COCc1ccc(C(=O)N2CCCC(N(C)CCc3ccc(OC)c(OC)c3)C2)s1 (stereo not shown) | -62.4 |

GET /value?item= CCCCc1c(C)nc2ccccc2c1SCCC(=O)O &field=hERG current change (%, negative = inhibition) at 10uM returns 14.8

GET /value?item= Cn1c(=O)c2cn(Cc3ccc(Cl)cc3)cc2n(C)c1=O &field=hERG current change (%, negative = inhibition) at 10uM returns -1.75

GET /value?item= CCN(C(=O)COC(=O)c1cc(S(=O)(=O)Nc2c(C)n(C)n(-c3ccccc3)c2=O)ccc1Cl)C1CCCCC1 &field=hERG current change (%, negative = inhibition) at 10uM returns -49.9

GET /value?item= CC(C)COc1ccc(C(=O)CCN2CCCCC2)cc1.Cl &field=hERG current change (%, negative = inhibition) at 10uM returns -41.4

GET /value?item= Cc1c(NS(=O)(=O)c2ccc(Cl)c(C(=O)OC(C)C(=O)NCc3ccco3)c2)c(=O)n(-c2ccccc2)n1C (stereo not shown) &field=hERG current change (%, negative = inhibition) at 10uM returns -77.5

GET /value?item= CCOc1ccc(NC(=O)CSc2nc(=O)n(CCCN3CCOCC3)c3c2CCC3)cc1 &field=hERG current change (%, negative = inhibition) at 10uM returns -24.1

GET /value?item= CN(C)c1ccc(/C=C(/NC(=O)c2ccccc2)C(=O)NCCCn2ccnc2)cc1 &field=hERG current change (%, negative = inhibition) at 10uM returns 0.277

GET /value?item= Cc1c(NS(=O)(=O)c2cc(C(=O)NCc3ccco3)cc(Cl)c2Cl)c(=O)n(-c2ccccc2)n1C &field=hERG current change (%, negative = inhibition) at 10uM returns -39.5

----------
// reported hERG current change (%, negative = inhibition) at 10uM for each item listed
system: human ether-à-go-go-related gene (hERG) potassium channel (human);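 further: peak tail current of the secondary pulse compared with the same well before compound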
measurementProtocol: primary screen, population patch clamp on CHO cells stably expressing hERG; higher = less effect of the substance
Experimental: Briefly, Chinese hamster ovary (CHO) cells stably expressing the hERG channel were dislodged from tissue culture flasks and dispensed into PPC plates. […] During the recording, background leak currents were estimated by a 100 ms step to -80 mV from an initial holding potential of -70 mV and subtracted from the subsequent current measurement. The campaign was conducted in two phases using slight differences in recording protocol. […]
Out of some 310,000 compounds screened, about 14,000 (4.5%) showed an effect of 50% or more. The effect is printed as a negative number. The entries come from a sample that favours strong results as a whole.
Report only the number, with the unit % understood.

Some entries whose results are on file:
| compound | unitLabel | observedResult |
| --- | --- | --- |
| CCOc1ccccc1NC(=O)NC1(C(=O)NCC2CCCO2)CCCCC1 (centres unmarked) | % | 15 |
| CC(C)Oc1cccc(C(=O)Nc2ccc(Br)cc2F)c1 | % | 7.79 |

GET /value?item= CN(C)CCSCc1nnc2n1-c1ccc(Cl)cc1C(c1ccccc1Cl)=NC2.c1ccccc1 &field=hERG current change (%, negative = inhibition) at 10uM returns -73.7

GET /value?item= Cc1cc(C)c(NC(=S)NC(=O)c2c(Cl)c(C)nn2C)c([N+](=O)[O-])c1 &field=hERG current change (%, negative = inhibition) at 10uM returns 12.2

GET /value?item= CS(=O)(=O)NCc1nnc2n1-c1ccc(Cl)cc1C(c1ccccc1)=NC2 &field=hERG current change (%, negative = inhibition) at 10uM returns 6.2

----------
system: human ether-à-go-go-related gene (hERG) potassium channel (human);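 further: peak tail current of the secondary pulse compared with the same well before compound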
measurementProtocol: primary screen, population patch clamp on CHO cells stably expressing hERG; higher = less effect of the substance
Among all 310,000 compounds or so, about 14,000 (4.5%) showed an effect of 50% or more. Effects have a minus sign here. The list comes from a sample in which strong results are over-represented; it also holds close analogues and randomly drawn compounds.
attributeMeasured: hERG current change (%, negative = inhibition) at 10uM (%)
Report only the number, with the unit % understood.

| molecule | observedResult |
| --- | --- |
| O=C(c1ccccc1Cl)N(Cc1ccc(Cl)c(Cl)c1)N1C(=O)CCCC1=O | -6.37 |
| CCCCN(C)C1CCN(C(=S)Nc2ccc(OC)cc2)CC1 | -26 |
| Cc1ccc(C(=O)/C=C/NCc2ccc(F)cc2)cc1 | -9.71 |
| COc1ccc(OCC(O)CNC(=O)Nc2cc(C)cc(C)c2)cc1 (stereo not shown) | 0.613 |
| CCN1/C(=C/c2ccc3ccccc3[n+]2CCCS(=O)(=O)[O-])C=Cc2cc(C)ccc21 | 24.2 |
| Cc1ccc2oc(C(=O)N(C)Cc3ccc(C)o3)c(C)c2c1 | 10.6 |
| C=CC[n+]1c(/C=C2\C=Cc3cc(C)ccc3N2CC)ccc2ccccc21.[Br-] | -83.5 |
| Cc1ccc2nc(NC(=O)c3ccc(Br)o3)sc2c1 | 20.6 |

GET /value?item= CCOc1ccc(NC(=S)N2CCC(N(C)CCN3CCOCC3)CC2)cc1 &field=hERG current change (%, negative = inhibition) at 10uM returns -15.9

GET /value?item= CCCCN(C)C1CCN(C(=S)Nc2ccc(OCC)cc2)CC1 &field=hERG current change (%, negative = inhibition) at 10uM returns -76.7

----------
// reported hERG current change (%, negative = inhibition) at 10uM for each item listed
system: human ether-à-go-go-related gene (hERG) potassium channel (human, UniProt Q12809);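 further: peak tail current of the secondary pulse compared with the same well before compound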
measurementProtocol: primary screen, population patch clamp on CHO cells stably expressing hERG; higher = less effect of the substance
The whole screen tested about 310,000 compounds, of which about 14,000 (4.5%) showed an effect of 50% or more. Effects have a minus sign here. For the sample, strong results were picked, then their nearest neighbours and some compounds at random.

Some entries whose results are on file:
| molecule | observedResult |
| --- | --- |
| COc1ccc(NC(=S)NCc2ccco2)cc1 | 9.23% |
| Cc1ccccc1CNC(=O)CCC(=O)N1CCOc2ccccc21 | 7.41% |
| CCCN(CC(=O)Nc1ccc(Cl)cc1Cl)C(=O)/C=C/c1cccc([N+](=O)[O-])c1 | -15.6% |

GET /value?item= CC(C)N(C(=O)/C=C/c1cccc([N+](=O)[O-])c1)C(C)C &field=hERG current change (%, negative = inhibition) at 10uM returns -13.8%

GET /value?item= Cc1ccc(S(=O)(=O)N2CCOC23CCN(C(=O)c2cc(Cl)ccc2Cl)CC3)cc1 &field=hERG current change (%, negative = inhibition) at 10uM returns -47.6%

GET /value?item= Cc1nnc(NC(=O)C2CCCO2)s1 (stereo not shown) &field=hERG current change (%, negative = inhibition) at 10uM returns 3.17%

GET /value?item= Cc1ccc(S(=O)(=O)N2CCOC23CCN(C(=O)c2ccc(Cl)cc2Cl)CC3)cc1 &field=hERG current change (%, negative = inhibition) at 10uM returns -48.1%

GET /value?item= Cc1cc(C)c(C(=O)OCCNC(=O)c2cccnc2)cc1C &field=hERG current change (%, negative = inhibition) at 10uM returns -17.3%

GET /value?item= COc1ccc(OCC(O)CN(C)C(=O)/C=C/c2cccc([N+](=O)[O-])c2)cc1 (stereo not shown) &field=hERG current change (%, negative = inhibition) at 10uM returns -80.5%

----------
system: human ether-à-go-go-related gene (hERG) potassium channel (human, UniProt Q12809);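 further: peak tail current of the secondary pulse compared with the same well before compound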
measurementProtocol: primary screen, population patch clamp on CHO cells stably expressing hERG; higher = less effect of the substance
Among all 310,000 compounds or so, about 14,000 (4.5%) showed an effect of 50% or more. Effects have a minus sign here. What follows is part of a selection rich in strong results, with near analogues and random picks from the rest.
Label t when hERG current change (%, negative = inhibition) at 10uM is at or above -10%; otherwise label f.

Example cases with answers are listed next.
| compound | categoryLabel |
| --- | --- |
| COC(=O)CCN1CCC(c2cc(-c3cccc(C(F)(F)F)c3)n[nH]2)CC1 | f |
| CCN(CC(=O)NCc1ccc(Cl)cc1)C(=O)Cc1ccc(OC)cc1 | f |
| O=C(CN1C(=O)c2ccccc2S1(=O)=O)NCCSCc1c(F)cccc1Cl | f |
| c1ccc(-n2ncc3c(NCCCN4CCOCC4)ncnc32)cc1 | f |
| CCOC(=O)C1=C(C)NC(C)=C(C(=O)OCC)C1c1cn(-c2ccccc2)nc1-c1ccco1 | t |
| CCN(CC(=O)NCc1ccc(F)cc1)C(=O)Cc1ccc(OC)cc1 | f |
| CCC(C)C(NC(=O)C1CCC(C)CC1)C(=O)Nc1ccc(OC)cc1OC (stereo not drawn) | t |
| COc1ccc(-c2cc(C3CCNCC3)[nH]n2)cc1 | t |

Exercise: API: above_or_equal(metric=hERG current change (%, negative = inhibition) at 10uM, cutoff=-10%) for item C[C@H]1CCC[C@H](O)CCCCCc2cc(O)cc(O)c2C(=O)O1
Key: f
